Ref: the supplement of paper PMC9170038

Kindly state apparent KD of MS2 coat protein for each of the entries shown.
- Test system: MS2 coat protein
- EXPERIMENTAL_PROTOCOL: apparent KD of MS2 coat protein; designed switch direction (-1 OFF switch, 1 ON switch): -1; higher = weaker reporter binding
- CONDITION: input ligand: none
Your answer should be a plain number; it is taken to be in nM.

Entry AAACCUAAUGUUAGGAUAUGCUUCGGGCUUCCGCUGCAGAAGGAACAUGAGGAUCACCCAUGUCAAAUAAAAUC [JL-BMX4-4.39 ViennaUCT mod] (Eterna round: R97, puzzle: Brourd's mod of Exclusion 4) has what apparent KD of MS2 coat protein?
17.6

Entry AGUUAUUCAGGAUAUGGUGUGUUAUACAUGAGGAUCACCCAUGUGGGUCCUGGUUUGGCCUCAGAAGGGAAUGUUA [salish99_ex5_r4_123] (Eterna round: R97, puzzle: Exclusion 5) has what apparent KD of MS2 coat protein?
600

Entry GAUAGUGGAGGAUAUACAUGAGGAUCACCCAUGUGAAGUUGCGUAAGUGACCCUUCCUGUAGAAGGCCAAGCAA [Eternabot (Original) Solution 31] (Eterna round: R97, puzzle: Exclusion 3) has what apparent KD of MS2 coat protein?
31.9

Entry CCAAGCUUGUUCAUUAACCACAUGAGGAUCACCCAUGUCUUGGCAAUUAUGACCUGCCCGUCAGGUGCUCGUCUUAU [Sensor-V1 #36] (Eterna round: R97, puzzle: Sensor, turn-off variant 1) has what apparent KD of MS2 coat protein?
48.1

Entry CUUUUAAAGCAACAUCAGCACAUGAGGAUCACCCAUGUGGCGUCCCGACUGUGCACGAUUGCUCGUCUUGACUGUAU [Eternabot (L1) Solution 25] (Eterna round: R97, puzzle: Sensor, turn-off variant 1) has what apparent KD of MS2 coat protein?
185

Entry GGGUAGUGAGGAUAUCUUGGCAAACCCGAACCUGUCAGCCAAGAGAAGGCACUUGAGGAUCACCCAAGUACAGG [Raeratti] (Eterna round: R97, puzzle: Exclusion 4) has what apparent KD of MS2 coat protein?
26.8

Entry AAAAGUUAAGGAUAUACUUGAGGAUCACCCAAGUAGGUGGCUUCAGCCGGGAAACGGCGUAGAAGGUAGCAGAA [Atorin] (Eterna round: R97, puzzle: Exclusion 3) has what apparent KD of MS2 coat protein?
60.5

Entry AAUUAGCUAGGAUAUACAUGAGGAUCACCCAUGUCAGUUACAUGGCCGGGUGUAACGAGUAGAAGGAGCGCCAA [EX3 B.28] (Eterna round: R97, puzzle: Exclusion 3) has what apparent KD of MS2 coat protein?
513

Entry ACAGUUUUGCAAGGAUAUCGUUUUAGUUUAUUACGAGAAGGUGCUUAAGUAAUUUCUUUGGGUUGACAUGAGGAUCACCCAUGU [JR_ExcNG1_Sub058] (Eterna round: R96, puzzle: Exclusion NG 1) has what apparent KD of MS2 coat protein?
139

Entry CGAUAGAUAGGAUAUACAUGAGGAUCACCCAUGUGAACGGGUAGAUUUGUCAACUGAAGUAGAAGGAUCGUCGC [Eternabot (L2) Solution 64] (Eterna round: R97, puzzle: Exclusion 3) has what apparent KD of MS2 coat protein?
761

Entry UUAAUUAAUUUAUUAGAUCCUCACAUGAGGAUCACCCAUGUGCAGGAUAUCAGCUCGUGUAGAGCUGAGAAGGGCACUAUAAAU [ExNG3/10-B3] (Eterna round: R96, puzzle: Exclusion NG 3) has what apparent KD of MS2 coat protein?
116

Entry GCCUUAUCUGUCAGGAUAUACAAUAAAAUUUUUUUGUAGAAGGGACAUGAGGAUCACCCAUGUACAUUACAUUG [alecazam22] (Eterna round: R97, puzzle: Brourd's mod of Exclusion 4) has what apparent KD of MS2 coat protein?
49.7

Entry ACACAGCGAGGAUAUACAUGAGGAUCACCCAUGUGGCGGCCGUUACGGUAGCACUAGUGUAGAAGGCGCAUUGG [EX3 #35] (Eterna round: R97, puzzle: Exclusion 3) has what apparent KD of MS2 coat protein?
192

Entry AAAUAAAAACAAGCAAAACACAUGAGGAUCACCCAUGUAAAGGGUGAAGUUCGCACCCAAAAAUAAAAUAAAUAAAA [another turnoff var 1st] (Eterna round: R96, puzzle: Sensor v2, turn-off variant) has what apparent KD of MS2 coat protein?
24.9

Entry CUAAUAGCAGCAGGAUAUCUCACAUGAGGAUCACCCAUGUGGGACCGCCACCUCGUGUGUAAAGAAGAGAAGGGCUCGCACUCC [Eternabot solution 6] (Eterna round: R96, puzzle: Exclusion NG 2) has what apparent KD of MS2 coat protein?
26.1

Entry GUCAGACGAGGAUAUAGAUUUGAUAACAUGAGGAUCACCCAUGUGAUCGAUAGAUCAGAUUUAGAAGGUGUCUGAC [E5/8-B3] (Eterna round: R97, puzzle: Exclusion 5) has what apparent KD of MS2 coat protein?
331

Entry GGAGCCUUAGGAUAUACAUGAGGAUCACCCAUGUGAUGUCGAAGCAAGGGUCUCCUAGGUAGAAGGAAGACAAU [Eternabot (L1) Solution 90] (Eterna round: R97, puzzle: Exclusion 3) has what apparent KD of MS2 coat protein?
17.9

Entry UUAUUAUAUGUAGGAUAUGCAUAUUGUUGUUAUGCAGAAGGACAUGAGGAUCACCCAUGUAUAUUAUUGUUAUGUAUUAUAUAU [Title] (Eterna round: R96, puzzle: Exclusion NG 1) has what apparent KD of MS2 coat protein?
37.1

* * *

- System: MS2 coat protein
- EXPERIMENTAL_PROTOCOL: apparent KD of MS2 coat protein, switch OFF state (with FMN for OFF switches, without FMN for ON switches); designed switch direction (-1 OFF switch, 1 ON switch): 1; higher = weaker reporter binding
- CONDITION: FMN input: 0 or 200 uM; Eterna round: R93 (includes R88 designs)
MEASURED_ENDPOINT: apparent KD of MS2 coat protein (nM)
Your answer should be a plain number; it is taken to be in nM.

Entry AACGAACAUGAGGAUCACCCAUGUUCCAACAGUUGAGGAUAUGUGGGUGAAAAUAGCACGGCAGAAGGCGAGUGUA [SameState1 Malc#21] has what apparent KD of MS2 coat protein?
49.8

Entry AUAAAACAUGAGGAUCACCCAUGUAGAAAUAUGGGAGGAUAUACUAGAUCGAAAGAUCUAGUAGAAGGCCUCAAAG [JL Mod of Eli 2] has what apparent KD of MS2 coat protein?
58.9

Entry GAAAAACAUGAGGAUCACCCAUGUGAAAAUAUGGGAGGAUAUACAAAGACGAAAGUCAAAGUAGAAGGCCUAAAAG [Mat - Same State 1 - Eli mod - D3] has what apparent KD of MS2 coat protein?
139

Entry AAAAGACAUGAGGAUCACCCAUGUAAAGACAUAGGAGGAUAUGUCAUGAAAAAAGACUUGACAGAAGGCCUUUGUC [SS1 - 50] has what apparent KD of MS2 coat protein?
20.4

Entry UGGAGACAUGAGGAUCACCCAUGUGAGAAGAGGCGAGGAUAUCGAAAAAAAAAAAAAAAACGAGAAGGCGCGAGAU [salish99-SS1-008] has what apparent KD of MS2 coat protein?
22.1

Entry AAAAAAUAAAAAAAGGAUAUAAAUGGUACAACAUGAGGAUCACCCAUGUAGUACCAAAAAAUAAAAAAGAAGGAAAAAUAAAAAA [SS2: MS2 22] has what apparent KD of MS2 coat protein?
23.7

* * *

- System: MS2 coat protein
- EXPERIMENTAL_PROTOCOL: apparent KD of MS2 coat protein; designed switch direction (-1 OFF switch, 1 ON switch): -1; higher = weaker reporter binding
- CONDITION: input ligand: microRNA oligo, concentration not stated
MEASURED_ENDPOINT: apparent KD of MS2 coat protein (nM)
Your answer should be a plain number; it is taken to be in nM.

Entry AAGAAAAGGAGAGGAUAUGCGAAAGGAAGUGUAGCAGAAGGCUUCGGGUAAGUCCACAUGAGGAUCACCCAUGUUAAUAAAAGA [PowerStrip EXNG 1.19] (Eterna round: R96, puzzle: Exclusion NG 1) has what apparent KD of MS2 coat protein?
290

Entry UGAUCAGACCGAGGAUAUACAUGGAGGACCCACGUGAGUGGGUCCACUACAUGAGGAUCACCCAUGUAGAAGGCGGUCUGAUCU [JL ENG2 1.91] (Eterna round: R96, puzzle: Exclusion NG 2) has what apparent KD of MS2 coat protein?
91.3

Entry ACAGUUUUGCAAGGAUAUCGUUUUAGUUUAUUACGAGAAGGUGCUUAAGUAAUUUCUUUGGGUUGACAUGAGGAUCACCCAUGU [JR_ExcNG1_Sub058] (Eterna round: R96, puzzle: Exclusion NG 1) has what apparent KD of MS2 coat protein?
128
